The measurements presented in this section are drawn from patent US7060451B2.

- system.under.test: α1β2γ2 GABAA subtype receptor (Homo sapiens, UniProt P14867+P18507)
- Sequence (P14867 28-456): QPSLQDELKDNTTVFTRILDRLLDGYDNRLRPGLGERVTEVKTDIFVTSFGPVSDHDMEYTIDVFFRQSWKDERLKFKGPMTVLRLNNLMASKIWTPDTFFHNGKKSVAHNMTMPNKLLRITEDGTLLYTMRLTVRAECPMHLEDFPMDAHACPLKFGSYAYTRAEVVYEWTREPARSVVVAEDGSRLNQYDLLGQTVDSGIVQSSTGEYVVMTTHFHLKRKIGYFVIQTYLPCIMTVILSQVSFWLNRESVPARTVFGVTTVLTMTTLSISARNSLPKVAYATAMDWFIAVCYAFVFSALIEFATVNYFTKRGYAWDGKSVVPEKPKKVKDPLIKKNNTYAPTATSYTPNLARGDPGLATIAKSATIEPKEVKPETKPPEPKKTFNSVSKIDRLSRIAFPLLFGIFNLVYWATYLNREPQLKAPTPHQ
- Sequence (P47870 25-512 partner limits assumed): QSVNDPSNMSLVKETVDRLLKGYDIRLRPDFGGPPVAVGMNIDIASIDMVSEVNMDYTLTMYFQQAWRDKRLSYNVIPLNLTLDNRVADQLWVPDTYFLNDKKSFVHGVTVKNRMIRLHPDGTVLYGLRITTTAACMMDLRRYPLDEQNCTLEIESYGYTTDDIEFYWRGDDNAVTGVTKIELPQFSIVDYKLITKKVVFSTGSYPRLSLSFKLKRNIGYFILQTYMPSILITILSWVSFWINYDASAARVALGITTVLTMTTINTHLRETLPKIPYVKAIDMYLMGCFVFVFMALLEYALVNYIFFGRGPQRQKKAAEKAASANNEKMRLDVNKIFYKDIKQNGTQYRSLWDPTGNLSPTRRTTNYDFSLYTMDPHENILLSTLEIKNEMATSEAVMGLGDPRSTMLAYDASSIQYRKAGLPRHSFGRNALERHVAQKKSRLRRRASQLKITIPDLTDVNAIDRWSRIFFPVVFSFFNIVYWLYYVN
- Sequence (P18507 40-475): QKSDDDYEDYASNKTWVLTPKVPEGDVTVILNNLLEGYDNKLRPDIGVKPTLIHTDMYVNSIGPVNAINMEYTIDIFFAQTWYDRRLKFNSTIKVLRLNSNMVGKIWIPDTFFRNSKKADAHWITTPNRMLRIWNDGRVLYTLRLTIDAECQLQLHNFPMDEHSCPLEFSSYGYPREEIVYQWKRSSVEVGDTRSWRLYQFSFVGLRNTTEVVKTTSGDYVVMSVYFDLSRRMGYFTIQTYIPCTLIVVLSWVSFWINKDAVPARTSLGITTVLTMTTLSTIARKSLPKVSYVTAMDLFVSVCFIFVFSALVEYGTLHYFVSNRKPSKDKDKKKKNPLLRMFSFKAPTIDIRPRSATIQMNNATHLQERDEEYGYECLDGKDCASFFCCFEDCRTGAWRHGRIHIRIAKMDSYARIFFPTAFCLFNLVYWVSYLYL
- test: oocyte electrophysiology, two electrode voltage-clamp, potentiation of GABA current
- Format: cell-based
- assay.setup: Xenopus oocytes, human subunits, GABA EC10
- Description: Assays are carried out as described previously in White and Gurley, 1995 and White, et al., 1995. Xenopus laevis oocytes are enzymatically isolated and injected with non-polyadenylated cRNA for human derived α, β and γ GABAA subunits, respectively. […] Specificity of a compound for the Ro15-1788 site is determined following completion of the concentration/effect curve. […] Percent change due to addition of compound is calculated as described above. […]
reported.property: oocyte electrophysiology maximum potentiation (%) α1β2γ2

compound="O=c1[nH]c2c(n1-c1nc3ccc(F)c(F)c3o1)CCCCC2 [compound 7]" recorded_measurement=18
compound="CCOc1ccc(-n2c(=O)c3c[nH]c4ccccc4n-3c2=O)cc1 [compound 1]" recorded_measurement=12
compound="Cc1ccc(-c2nc3ccc(C)cn3c2CC(=O)N(C)C)cc1 [Zolpidem, reference compound]" recorded_measurement=263
compound="O=C1C2C=Nc3ccccc3C2=NN1c1ccccc1 (centres unmarked) [CGS 8216, reference compound]" recorded_measurement=−26
compound="O=C(Nc1ccc(OCCO)cc1)c1c[nH]c2c1C(=O)CCC2 [compound 12]" recorded_measurement=15
compound="COc1ccc(NC(=O)c2c[nH]c3c2C(=O)CC(C)(C)C3)c(F)c1 [compound 6]" recorded_measurement=25
compound="CC(C)(C)OC(=O)c1ncn2c1C1CCCN1C(=O)c1c(Br)cccc1-2 (centres unmarked) [Ro16-6028, reference compound]" recorded_measurement=40
compound="O=c1c(-c2ccccc2F)nc2c[nH]c3ccccc3n1-2 [compound 2]" recorded_measurement=18
compound="c1cc2c(cc1-c1ncc3[nH]c4c(c3n1)CCCC4)OCO2 [compound 9]" recorded_measurement=33
compound="Cc1nnc2n1-c1ccc(Cl)cc1C(c1ccccc1)=NC2 [Alprazolam, reference compound]" recorded_measurement=327
compound="CC1CC(=O)c2c(C(=O)Nc3ccc(F)cc3)c[nH]c2C1 (centres unmarked) [compound 8]" recorded_measurement=17

----------
- system.under.test: α2β3γ2 GABAA subtype receptor (Homo sapiens, UniProt P18507+P47869)
- Sequence (P47869 29-451): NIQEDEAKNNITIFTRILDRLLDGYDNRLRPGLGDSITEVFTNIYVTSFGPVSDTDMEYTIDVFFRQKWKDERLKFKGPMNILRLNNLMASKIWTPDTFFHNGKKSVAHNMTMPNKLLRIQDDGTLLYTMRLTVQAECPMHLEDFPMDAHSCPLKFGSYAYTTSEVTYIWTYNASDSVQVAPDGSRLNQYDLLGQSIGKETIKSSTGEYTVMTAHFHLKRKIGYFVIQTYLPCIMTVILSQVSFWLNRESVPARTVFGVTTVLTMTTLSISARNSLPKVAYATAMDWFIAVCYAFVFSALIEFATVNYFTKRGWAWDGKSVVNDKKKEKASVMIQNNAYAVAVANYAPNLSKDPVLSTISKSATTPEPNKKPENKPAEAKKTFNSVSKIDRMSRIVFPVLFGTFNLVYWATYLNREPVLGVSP
- Sequence (P28472 26-473 partner): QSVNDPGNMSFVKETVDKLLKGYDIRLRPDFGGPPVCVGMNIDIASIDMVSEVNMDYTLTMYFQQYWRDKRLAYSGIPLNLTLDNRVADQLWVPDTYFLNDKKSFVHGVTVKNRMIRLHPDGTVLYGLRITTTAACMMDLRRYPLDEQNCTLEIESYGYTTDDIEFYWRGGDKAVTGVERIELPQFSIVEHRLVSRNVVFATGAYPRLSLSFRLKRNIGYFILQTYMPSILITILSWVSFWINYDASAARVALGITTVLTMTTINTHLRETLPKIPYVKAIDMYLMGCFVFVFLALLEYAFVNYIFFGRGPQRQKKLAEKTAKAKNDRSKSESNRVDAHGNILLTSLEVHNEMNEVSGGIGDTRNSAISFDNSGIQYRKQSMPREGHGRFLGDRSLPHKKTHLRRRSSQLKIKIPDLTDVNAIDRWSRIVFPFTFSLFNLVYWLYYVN
- Sequence (P18507 40-475): as the sequence (P18507 40-475) above
- test: oocyte electrophysiology, two electrode voltage-clamp, potentiation of GABA current
- Type: cell-based
- assay.setup: Xenopus oocytes, human subunits, GABA EC10
Lab note: compare oocyte electrophysiology maximum potentiation (%) α2β3γ2 against 40%. Equal or greater, write true (1). Smaller, write false (0).

compound=O=c1[nH]c2c(n1-c1nc3ccc(F)c(F)c3o1)CCCCC2 system_under_test="α2β3γ2 GABAA subtype receptor (Homo sapiens, UniProt P18507+P47869)" class_name="true (1)"
compound=c1cc2c(cc1-c1ncc3[nH]c4c(c3n1)CCCC4)OCO2 system_under_test="α2β3γ2 GABAA subtype receptor (Homo sapiens, UniProt P18507+P47869)" class_name="true (1)"
compound="Cc1ccc(-c2nc3ccc(C)cn3c2CC(=O)N(C)C)cc1 [Zolpidem, reference compound]" system_under_test="α2β3γ2 GABAA subtype receptor (Homo sapiens, UniProt P18507+P47869)" class_name="true (1)"
compound=O=c1c2c[nH]c3ccccc3n-2c(=O)n1-c1ccc(F)cc1 system_under_test="α2β3γ2 GABAA subtype receptor (Homo sapiens, UniProt P18507+P47869)" class_name="false (0)"
compound="CC1CC(=O)c2c(C(=O)Nc3ccc(F)cc3)c[nH]c2C1 (centres unmarked)" system_under_test="α2β3γ2 GABAA subtype receptor (Homo sapiens, UniProt P18507+P47869)" class_name="true (1)"
compound="Cc1nnc2n1-c1ccc(Cl)cc1C(c1ccccc1)=NC2 [Alprazolam, reference compound]" system_under_test="α2β3γ2 GABAA subtype receptor (Homo sapiens, UniProt P18507+P47869)" class_name="true (1)"
compound=COc1ccc(F)c(-c2ncc3[nH]c4c(c3n2)CCCC4)c1 system_under_test="α2β3γ2 GABAA subtype receptor (Homo sapiens, UniProt P18507+P47869)" class_name="false (0)"
compound=COc1ccc(NC(=O)c2c[nH]c3c2C(=O)CC(C)(C)C3)c(F)c1 system_under_test="α2β3γ2 GABAA subtype receptor (Homo sapiens, UniProt P18507+P47869)" class_name="true (1)"
compound=O=C(Nc1ccccc1)c1c[nH]c2c1C(=O)CCCC2 system_under_test="α2β3γ2 GABAA subtype receptor (Homo sapiens, UniProt P18507+P47869)" class_name="false (0)"
compound=O=C(Nc1cccc(F)c1)c1c[nH]c2c(c1=O)CCC2 system_under_test="α2β3γ2 GABAA subtype receptor (Homo sapiens, UniProt P18507+P47869)" class_name="true (1)"
compound="CC(C)(C)OC(=O)c1ncn2c1C1CCCN1C(=O)c1c(Br)cccc1-2 (centres unmarked) [Ro16-6028, reference compound]" system_under_test="α2β3γ2 GABAA subtype receptor (Homo sapiens, UniProt P18507+P47869)" class_name="false (0)"
compound=O=C(Nc1ccc(OCCO)cc1)c1c[nH]c2c1C(=O)CCC2 system_under_test="α2β3γ2 GABAA subtype receptor (Homo sapiens, UniProt P18507+P47869)" class_name="true (1)"
compound="O=C1C2C=Nc3ccccc3C2=NN1c1ccccc1 (centres unmarked) [CGS 8216, reference compound]" system_under_test="α2β3γ2 GABAA subtype receptor (Homo sapiens, UniProt P18507+P47869)" class_name="false (0)"

----------
- system.under.test: α3β3γ2 GABAA subtype receptor (Homo sapiens, UniProt P18507+P34903)
- Sequence (P34903 29-492): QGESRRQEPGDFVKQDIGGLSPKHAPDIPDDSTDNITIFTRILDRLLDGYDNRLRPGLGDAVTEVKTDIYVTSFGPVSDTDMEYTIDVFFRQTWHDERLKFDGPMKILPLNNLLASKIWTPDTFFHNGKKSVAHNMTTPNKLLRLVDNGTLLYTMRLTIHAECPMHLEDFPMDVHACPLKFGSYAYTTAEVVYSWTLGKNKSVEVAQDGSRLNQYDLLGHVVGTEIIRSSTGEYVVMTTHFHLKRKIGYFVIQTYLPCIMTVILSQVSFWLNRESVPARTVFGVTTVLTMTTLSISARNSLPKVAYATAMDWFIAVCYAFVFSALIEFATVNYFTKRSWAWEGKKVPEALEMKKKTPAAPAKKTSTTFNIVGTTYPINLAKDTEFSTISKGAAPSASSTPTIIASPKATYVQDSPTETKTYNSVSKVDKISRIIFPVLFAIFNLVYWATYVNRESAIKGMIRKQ
- Sequence (P28472 26-473 partner): as the sequence (P28472 26-473 partner) above
- Sequence (P18507 40-475): as the sequence (P18507 40-475) above
- test: oocyte electrophysiology, two electrode voltage-clamp, potentiation of GABA current
- Type: cell-based
- assay.setup: Xenopus oocytes, human subunits, GABA EC10
reported.property: oocyte electrophysiology maximum potentiation (%) α3β3γ2

molecule="CC1CC(=O)c2c(C(=O)Nc3ccc(F)cc3)c[nH]c2C1 (centres unmarked) [compound 8]" unit_text=% recorded_measurement=61
molecule="O=C1C2C=Nc3ccccc3C2=NN1c1ccccc1 (centres unmarked) [CGS 8216, reference compound]" unit_text=% recorded_measurement=−8
molecule="c1cc2c(cc1-c1ncc3[nH]c4c(c3n1)CCCC4)OCO2 [compound 9]" unit_text=% recorded_measurement=23
molecule="Cc1ccc(-c2nc3ccc(C)cn3c2CC(=O)N(C)C)cc1 [Zolpidem, reference compound]" unit_text=% recorded_measurement=882
molecule="O=C(Nc1ccc(OCCO)cc1)c1c[nH]c2c1C(=O)CCC2 [compound 12]" unit_text=% recorded_measurement=82

----------
Catalogue of Emax readings, one per entry.
- system.under.test: α5β3γ2 GABAA subtype receptor (Homo sapiens, UniProt P18507+P31644)
- Sequence (P31644 32-462): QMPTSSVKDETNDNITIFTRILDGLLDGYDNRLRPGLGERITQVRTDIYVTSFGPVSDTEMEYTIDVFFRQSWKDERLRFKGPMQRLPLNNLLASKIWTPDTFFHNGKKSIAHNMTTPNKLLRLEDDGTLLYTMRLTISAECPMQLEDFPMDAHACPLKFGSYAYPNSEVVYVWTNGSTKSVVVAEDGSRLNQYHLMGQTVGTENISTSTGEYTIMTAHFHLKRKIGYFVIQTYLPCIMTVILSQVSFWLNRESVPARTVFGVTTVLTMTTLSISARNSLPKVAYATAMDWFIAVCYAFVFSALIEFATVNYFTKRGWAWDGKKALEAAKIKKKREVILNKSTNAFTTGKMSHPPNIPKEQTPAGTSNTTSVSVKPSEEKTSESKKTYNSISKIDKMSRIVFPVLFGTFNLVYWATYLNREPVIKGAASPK
- Sequence (P28472 26-473 partner): as the sequence (P28472 26-473 partner) above
- Sequence (P18507 40-475): as the sequence (P18507 40-475) above
- test: oocyte electrophysiology, two electrode voltage-clamp, potentiation of GABA current
- Type: cell-based
- assay.setup: Xenopus oocytes, human subunits, GABA EC10; read-out: oocyte electrophysiology maximum potentiation (%) α5β3γ2
reported.property: Emax

chemical_smiles=O=C(Nc1cccc(F)c1)c1c[nH]c2c(c1=O)CCC2 reported_property=Emax recorded_measurement=0%
chemical_smiles=CCOc1ccc(NC(=O)c2c[nH]c3c2C(=O)CCC3)cc1 reported_property=Emax recorded_measurement=-11%
chemical_smiles=O=C(Nc1ccc(OCCO)cc1)c1c[nH]c2c1C(=O)CCC2 reported_property=Emax recorded_measurement=-12%
chemical_smiles=O=c1[nH]c2c(n1-c1nc3ccc(F)c(F)c3o1)CCCCC2 reported_property=Emax recorded_measurement=-23%
chemical_smiles=O=c1c(-c2ccccc2F)nc2c[nH]c3ccccc3n1-2 reported_property=Emax recorded_measurement=-11%
